biological target: serotonin receptor 5-HT1A (Sus scrofa, UniProt A0A4X1UTF5); test: radio ligand binding, pig cortex membrane preparations, [3H]8-OH-DPAT
Sequence (A0A4X1UTF5 1-422): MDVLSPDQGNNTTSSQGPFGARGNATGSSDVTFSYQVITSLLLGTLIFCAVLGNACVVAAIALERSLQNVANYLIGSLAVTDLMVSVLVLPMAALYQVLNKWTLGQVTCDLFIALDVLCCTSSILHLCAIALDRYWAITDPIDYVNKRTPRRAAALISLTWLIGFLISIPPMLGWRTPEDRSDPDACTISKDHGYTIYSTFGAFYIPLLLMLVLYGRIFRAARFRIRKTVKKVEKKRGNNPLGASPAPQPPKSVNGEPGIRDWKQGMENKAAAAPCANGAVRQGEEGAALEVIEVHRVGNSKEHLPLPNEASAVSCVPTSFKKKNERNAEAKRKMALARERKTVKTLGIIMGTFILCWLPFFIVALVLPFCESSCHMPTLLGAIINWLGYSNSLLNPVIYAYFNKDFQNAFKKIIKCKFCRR
Reported Ki values for the following molecules.
Note: state the figure and append the unit.

smi=COc1ccccc1N1CCN(CCCCNC(=O)c2cc3cc(Br)ccc3[nH]2)CC1 metric=Ki result="440 nM"
smi=COc1ccccc1N1CCN(CCCCNC(=O)c2cc3cc(C#N)ccc3s2)CC1 metric=Ki result="54 nM"

Continue with the next molecule.
Problem: GET /values?readout=Ki&item= O=C(NCCCCN1CCN(c2cccc(Cl)c2Cl)CC1)c1cc2ccccc2[nH]1
Result: 610 nM

* * *

Reported pKi values for the following compounds.
biological target: α1 receptors; experiment: competitive experiment with the α1 selective radio ligand [3H]Prazosin; conditions: read-out: Ki values α1 (footnote d); pα1; competitive experiment with [3H]Prazosin
In plain terms, pKi is the concentration in mol/L turned into minus its base-10 logarithm.

Problem: GET /values?readout=pKi&item= COc1ccccc1N1CCN(CCCCNC(=O)c2cc3cc(Br)ccc3[nH]2)CC1
Result: 8.19

Problem: GET /values?readout=pKi&item= COc1ccccc1N1CCN(CCCCNC(=O)c2cc3ccc(C#N)cc3s2)CC1
Result: 8.08

Problem: GET /values?readout=pKi&item= COc1ccccc1N1CCN(CCCCNC(=O)c2cc3ccccc3s2)CC1
Result: 8.19

* * *

molecular target: serotonin receptor 5-HT2 (Sus scrofa); construct: cortex membrane preparations of a pig; from tissue; host or cells: pig cortex; test: radio ligand binding, pig cortex membrane preparations, [3H]Ketanserin with 10 μM Prazosin; details: p5-HT2; simultaneous incubation with 10 μM of Prazosin
Sequence (P50129 whole entry): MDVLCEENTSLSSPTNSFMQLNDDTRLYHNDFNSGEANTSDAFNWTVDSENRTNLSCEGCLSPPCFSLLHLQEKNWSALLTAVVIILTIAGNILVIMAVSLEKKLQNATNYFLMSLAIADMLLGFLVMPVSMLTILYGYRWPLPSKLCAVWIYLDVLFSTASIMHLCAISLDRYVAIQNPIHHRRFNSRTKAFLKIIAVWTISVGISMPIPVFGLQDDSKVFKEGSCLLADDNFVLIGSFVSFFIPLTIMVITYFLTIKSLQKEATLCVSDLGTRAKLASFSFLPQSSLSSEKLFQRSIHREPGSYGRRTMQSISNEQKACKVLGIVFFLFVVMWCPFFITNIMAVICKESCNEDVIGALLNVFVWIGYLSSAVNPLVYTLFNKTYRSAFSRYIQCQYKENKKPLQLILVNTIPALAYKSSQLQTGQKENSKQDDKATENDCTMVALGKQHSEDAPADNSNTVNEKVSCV
METRIC: pKi
In plain terms, pKi is the concentration in mol/L turned into minus its base-10 logarithm.

Previously resolved entries follow.
compound="COc1ccccc1N1CCN(CCCCNC(=O)c2cc3cc(C#N)ccc3o2)CC1 [Example 7]" result_number=6.41
compound="COc1ccccc1N1CCN(CCCCNC(=O)c2cc3ccc(C#N)cc3[nH]2)CC1 [Example 13]" result_number=6.66
compound="N#Cc1ccc2[nH]c(C(=O)NCCCCN3CCN(c4cccc(Cl)c4Cl)CC3)cc2c1 [Example 25]" result_number=6.66
compound="COc1ccccc1N1CCN(CCCCNC(=O)c2cc3cc(Br)ccc3o2)CC1 [Example 5]" result_number=6.85
compound="N#Cc1ccc2cc(C(=O)NCCCCN3CCN(c4cccc(Cl)c4Cl)CC3)[nH]c2c1 [Example 15]" result_number=6.49

Continue with the next compound.
Problem: GET /values?readout=pKi&item= COc1ccccc1N1CCN(CCCCNC(=O)c2cc3ccc(C#N)cc3s2)CC1 [Example 20]
Result: 6.18

* * *

Reported Ki values for the following compounds.
target: D3 receptor (Homo sapiens); experiment: radio ligand binding assay, CHO cell membrane homogenates, [3H]Spiperon, D3; parameters: expressed in transfected cells; host or cells: CHO cells (membrane homogenates); conditions: hD3; average of 2-9 experiments in triplicate; read-out: Ki-values D3
Sequence (P35462 whole entry): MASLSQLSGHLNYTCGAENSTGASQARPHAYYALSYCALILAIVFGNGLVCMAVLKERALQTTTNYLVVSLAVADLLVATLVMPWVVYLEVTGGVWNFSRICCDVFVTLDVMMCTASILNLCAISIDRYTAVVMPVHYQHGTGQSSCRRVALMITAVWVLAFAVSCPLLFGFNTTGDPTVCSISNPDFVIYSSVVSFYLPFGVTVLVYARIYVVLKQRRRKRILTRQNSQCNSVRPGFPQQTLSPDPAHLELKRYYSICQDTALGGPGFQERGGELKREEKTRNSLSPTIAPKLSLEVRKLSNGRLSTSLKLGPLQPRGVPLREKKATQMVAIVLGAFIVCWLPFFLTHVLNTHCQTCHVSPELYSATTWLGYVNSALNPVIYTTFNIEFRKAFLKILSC

smi=COc1ccccc1N1CCN(CCCCNC(=O)c2cc3cc(C#N)ccc3[nH]2)CC1 metric=Ki result="0.23 to 0.57 nM"

Problem: GET /values?readout=Ki&item= COc1ccccc1N1CCN(CCCCNC(=O)c2cc3ccc(C#N)cc3[nH]2)CC1
Result: 0.23 to 0.57 nM

Problem: GET /values?readout=Ki&item= COc1ccccc1N1CCN(CCCCNC(=O)c2cc3ccc(C#N)cc3s2)CC1
Result: 0.23 to 0.57 nM

Problem: GET /values?readout=Ki&item= COc1ccccc1N1CCN(CCCCNC(=O)c2cc3cc(Br)ccc3[nH]2)CC1
Result: 0.23 to 0.57 nM

Problem: GET /values?readout=Ki&item= COc1ccccc1N1CCN(CCCCNC(=O)c2cc3ccccc3s2)CC1
Result: 0.23 to 0.57 nM
